All figures here come from paper doi:10.1101/2025.11.23.690065v1.

For each entry below, report its pKd value.
Target chain: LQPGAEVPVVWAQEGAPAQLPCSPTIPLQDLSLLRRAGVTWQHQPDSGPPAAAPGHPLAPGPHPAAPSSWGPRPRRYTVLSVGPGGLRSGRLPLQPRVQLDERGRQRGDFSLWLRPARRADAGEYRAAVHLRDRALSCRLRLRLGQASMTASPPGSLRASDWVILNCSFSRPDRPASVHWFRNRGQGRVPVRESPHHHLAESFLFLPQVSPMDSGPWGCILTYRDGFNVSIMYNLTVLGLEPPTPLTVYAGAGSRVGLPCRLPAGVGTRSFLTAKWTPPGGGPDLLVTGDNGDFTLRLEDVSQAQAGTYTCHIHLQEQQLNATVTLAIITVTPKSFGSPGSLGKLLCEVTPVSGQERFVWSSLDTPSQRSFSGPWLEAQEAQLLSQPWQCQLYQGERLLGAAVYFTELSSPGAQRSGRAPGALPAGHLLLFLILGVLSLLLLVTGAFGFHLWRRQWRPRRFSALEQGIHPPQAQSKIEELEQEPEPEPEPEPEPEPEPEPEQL
Here pKd is given on a logarithmic scale as minus log10 of the concentration in mol/L.

-- ask Which measured pKd value corresponds to Cc1cccn2c(=O)cc(CN3C(C(=O)O)CC4CCCCC43)nc12 (centres unmarked) ?
-- reply 4.21

-- ask Entry to check: O=C1CCCN1c1ccc2c(c1)CCN2
-- reply 4.23

---

molecular target: His-TREM2 (TREM2) (Homo sapiens, UniProt Q9NZC2); experiment: MST; assay type: binding
Sequence (Q9NZC2 19-174 limits assumed): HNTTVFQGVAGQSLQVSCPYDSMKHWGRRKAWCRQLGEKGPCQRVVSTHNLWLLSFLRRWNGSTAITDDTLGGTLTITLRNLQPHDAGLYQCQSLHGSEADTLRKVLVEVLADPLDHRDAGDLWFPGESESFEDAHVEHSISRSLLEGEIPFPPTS
Threshold check on Kd: strictly below 30 µM is 1; on or above 30 µM is -1.

-- ask is_below(Kd, 30 µM) for NC(=O)C1CCN(C(=O)c2cccn(Cc3ccccc3)c2=O)CC1 ?
-- reply -1

-- ask Ok, now COC1(CC(=O)Nc2ccc3c(c2)CCN3)CCC1
-- reply -1

-- ask Then what about the compound CC(C)(C)CC(=O)Nc1ccc2c(c1)CCN2 ?
-- reply -1

-- ask Similarly, O=C(Nc1ccc2c(c1)CCN2C(=O)c1ccoc1)C1CC2C=CC1C2 (centres unmarked) ?
-- reply -1

-- ask Record: O=C(Nc1ccc2c(c1)CCN2)C1CCCC1
-- reply -1

-- ask O=C1CCCN1c1ccc2c(c1)CCN2 ?
-- reply 1

-- ask Now consider Cc1cccc(Cn2cccc(C(=O)N3C(C(=O)O)CC4CCCCC43)c2=O)c1 (centres unmarked) .
-- reply 1

-- ask Next: Cc1cccn2c(=O)cc(CN3C(C(=O)O)CC4CCCCC43)nc12 (centres unmarked)
-- reply 1

---

target: TREM1 (Homo sapiens)
Sequence (Q9NP99 21-205 limits assumed): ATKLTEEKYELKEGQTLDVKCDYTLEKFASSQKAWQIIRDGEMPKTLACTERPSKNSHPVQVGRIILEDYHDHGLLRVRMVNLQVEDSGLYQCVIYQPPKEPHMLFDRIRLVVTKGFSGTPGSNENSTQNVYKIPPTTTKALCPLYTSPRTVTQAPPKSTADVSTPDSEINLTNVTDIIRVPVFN
Assay readout: pKd
// field semantics: pKd = negative decimal log of concentration (mol/L)

-- ask Given the entry O=C(Nc1ccc2c(c1)CCN2)C1CCCC1 [6B10] , what pKd was observed with TREM1 (Homo sapiens)?
-- reply 4.17

-- ask Could you do the same for Cc1cccn2c(=O)cc(CN3C(C(=O)O)CC4CCCCC43)nc12 (stereo not shown) [7G19] , please?
-- reply 4.33

-- ask Thanks! And O=C1CCCN1c1ccc2c(c1)CCN2 [6B10-1] ?
-- reply 3.92

-- ask Same again, this time with O=C(O)C1CC2CCCCC2N1Cc1cc(=O)n2ccccc2n1 (stereo not shown) [7G19-5]
-- reply 4.25

---

molecular target: UniProt Q9NZC2; experiment: biochemical
Assay readout: Kd (µM)
Unit µM implied. Number only.

-- ask Could you share what Kd was measured for CC1(C(=O)Nc2ccc3c(c2)CCN3C(=O)c2ccoc2)CCCC1 [6B10-8] , tested on UniProt Q9NZC2?
-- reply 136
